- Test system: human peripheral blood mononuclear cells (PBMCs)
- method-summary: Human PBMC activation assay, cytokine levels (IL-10, IL-6, MCP-1, TNF-α) in supernatant after 24 hours (Example 9)
- recorded-conditions: human PBMC supernatant after 24 hours; 1.6 μM oligonucleotide
property-label: Levels of IL-10 (pg/mL)
Could you give me the number in pg/mL? Just the number is fine.

[
  {
    "substance": "830121 (AGAATCAAGCCCTGGC; 3-10-3 cEt gapmer, further chemistry not given here) [compound 830121]",
    "unit-string": "pg/mL",
    "measurement": 3.1
  },
  {
    "substance": "830037 (antisense CTATTGGCTGATCTGG; 3-10-3 cEt gapmer, further chemistry not given here) [compound 830037]",
    "unit-string": "pg/mL",
    "measurement": 9.5
  },
  {
    "substance": "798781 (CGTAAGATTCACAGCA; 3-10-3 cEt gapmer, further chemistry not given here) [compound 798781]",
    "unit-string": "pg/mL",
    "measurement": 3.9
  }
]

State its Levels of IL-10 for this substance: 830025 (antisense TTTGTAAATCGAAAGC; 3-10-3 cEt gapmer, further chemistry not given here) [compound 830025] 3.6
